Data credit: patent US6476025B1

Tested on: PDE4
Experiment: Inhibition of PDE4 activity (method of Bauer and Schwabe, adapted to microtiter plates)
Type: biochemical
Conditions: inhibitory concentration as −log IC50 (mol/l)
Protocol: The activity test was carried out according to the method of Bauer and Schwabe, which was adapted to microtiter plates (Naunyn-Schmiedeberg's Arch. Pharmacol. 1980, 311, 193-198). The PDE reaction takes place in the first step here. […] The inhibitory values determined for the compounds according to the invention [inhibitory concentration as −log Ic50 (mol/l)] follow from the following Table A, in which the numbers of the compounds correspond to the numbers of the examples.
QUANTITY: −log IC50, inhibition of the PDE4 activity

1) COc1cc2c(cc1OC)[C@@H]1CCCC[C@@H]1N=C2c1cccc(C(=O)c2ccccc2)c1 : 8.64
2) COc1cc2c(cc1OC)[C@@H]1CCCC[C@@H]1N=C2c1cccc(OS(=O)(=O)c2ccc(C)cc2)c1 : 8.44
3) COc1cc2c(cc1OC)[C@@H]1CCCC[C@@H]1N=C2c1ccc(C(=O)c2ccccc2)cc1 : 7.82
4) COc1cc2c(cc1OC)C1CCCCC1N=C2c1ccc(C(C)=O)cc1 (single isomer, unassigned; (-)) : 7.27
5) COc1cc2c(cc1OC)[C@@H]1CCCC[C@@H]1N=C2c1ccc(OC)c(OCc2ccccc2)c1 : 8.03
6) COc1cc2c(cc1OC)[C@@H]1CCCC[C@@H]1N=C2c1ccc(OC(F)F)c(OCC2CC2)c1 : 7.43
7) COc1cc2c(cc1OC)[C@@H]1CCCC[C@@H]1N=C2c1ccc(CN2CCOCC2)cc1 : 7.35
